test: Quantitative High-Throughput drug screen in 47 multiple myeloma cell lines against the NCATS MIPE library collection: KMS11_JCRBsus cell viability assay (AID 1919873); note: nearly all actives have a fitted effect of over 50% in size
condition.label: KMS11 myeloma viability, CellTiter-Glo ATP luminescence, 48 h; series mostly up to 45.8 µM
Inconclusive results are not listed. Active and inactive are the calls of the source. Calls come from the whole dose curve; as a rule, active = well fitted cell-killing curve with a large enough effect; inconclusive = small, poorly fitted or top-dose-only effect, or effect the other way; inactive = no such curve, though single readings can be large or run the other way.
Answer with one of the outcomes active, inactive

line_notation=Cn1cc(CNCC2CCN(c3ncc(C(=O)NO)cn3)CC2)c2ccccc21 group=active
line_notation=CC(C)[C@H](CO)Nc1nc(Nc2cccc(Cl)c2)c2ncn(C(C)C)c2n1 group=active
line_notation=COC(=O)[C@@H]1CC2=CC(=O)CC[C@]2(C)[C@@]23O[C@@H]2C[C@@]2(C)[C@H](CC[C@@]24CCC(=O)O4)[C@@H]13 group=inactive
line_notation=NC(=O)c1cccc(-c2cccc(OC(=O)NC3CCCCC3)c2)c1 group=inactive
line_notation=COc1cc(OC)cc(-c2ccc3ncc4ccc(=O)n(-c5ccc(N6CCNCC6)c(C(F)(F)F)c5)c4c3c2)c1 group=active

Query: I'd appreciate the recorded outcome for N#Cc1c(C2CCNCC2)cc(-c2c(O)cccc2OCC2CC2)nc1N from this test.
Reply: active

====

test: qHTS of pediatric cancer cell lines to identify multiple opportunities for drug repurposing: Primary screen for SK-N-MC cells (AID 1347093); note: potency is the fitted concentration of half-maximal effect
condition.label: SK-N-MC viability, CellTiter-Glo luminescence, 48 h; series mostly up to 46 µM
Experimental: Drug repurposing or repositioning has been offered as a strategy for drug development in oncology programs. […] [1] Shen, M et al. Quantitative high-throughput phenotypic screening of pediatric cancer cell lines identifies multiple opportunities for drug repurposing. […] Cells were assayed in growth media at a density of 500-1,000 cells/well. […] After a 15 min incubation at room temperature, samples were analyzed for luminescence intensity using a ViewLux High-throughput CCD imager equipped with clear filters.
Records with an inconclusive call do not appear. Active and inactive are the calls of the source. Calls come from the whole dose curve; as a rule, active = well fitted cell-killing curve with a large enough effect; inconclusive = small, poorly fitted or top-dose-only effect; inactive = no such curve, though single readings can be large or run the other way.
metric: Potency

compound="CCCCCCCN(CC)CCCC(O)c1ccc(NS(C)(=O)=O)cc1 (configuration not stated)" test_value=inactive
compound="N[C@H]1CN(c2c(F)cc3c(=O)c(C(=O)O)cn(C4C[C@@H]4F)c3c2Cl)CC12CC2 (some centres not stated)" test_value=inactive
compound=N#Cc1ccc(COC[C@H]2O[C@@H](n3c(NCc4ccc(Cl)c(Cl)c4)nc4c(N)ncnc43)[C@@H](O)[C@@H]2O)cc1 test_value="20.9 µM (active)"
compound="COc1cccc2c1C(=O)c1c(O)c3c(c(O)c1C2=O)C[C@@](O)(C(=O)CO)C[C@@H]3O[C@H]1C[C@H](N)[C@H](OC2CCCCO2)[C@H](C)O1 (some centres not stated)" test_value="0.833 µM (active)"

Query: Any idea what Potency was measured for CCc1nc(-c2cccc(C)c2)c(-c2ccnc(NC(=O)c3ccccc3)c2)s1 ?
Reply: 29.6 µM (active)

Query: CC(=O)O[C@@]12CO[C@H]1C[C@H](O)[C@@]1(C)C(=O)[C@H](O)C3=C(C)[C@@H](OC(=O)C(O)[C@@H](NC(=O)OC(C)(C)C)c4ccccc4)C[C@@](O)([C@@H](OC(=O)c4ccccc4)[C@@H]21)C3(C)C (some centres not stated) , same question.
Reply: 0.001 µM (active)

Query: Cc1ccccc1C(=O)Nc1ccc(C(=O)N2CCCC(O)c3cc(Cl)ccc32)c(C)c1 (configuration not stated) , same question.
Reply: inactive

Query: C#CCC(Cc1cnc2nc(N)nc(N)c2n1)c1ccc(C(=O)N[C@@H](CCC(=O)O)C(=O)O)cc1 (some centres not stated) , same question.
Reply: 0.0235 µM (active)

Query: CCn1c(=O)c2c(nc(C=Cc3ccc(OC)c(OC)c3)n2C)n(CC)c1=O , same question.
Reply: 18.7 µM (active)

Query: Cc1coc2c1C(=O)C(=O)c1c-2ccc2c(C)cccc12 , same question.
Reply: inactive

Query: Nc1nc2c(c(=O)[nH]1)N(C=O)[C@H](CNc1ccc(C(=O)N[C@@H](CCC(=O)O)C(=O)O)cc1)CN2 , same question.
Reply: inactive

Query: CCN(CC)CCCCNc1ncc2c(n1)N(C)C(=O)N(c1c(Cl)c(OC)cc(OC)c1Cl)C2 , same question.
Reply: 13.2 µM (active)

Query: CN[C@H]1[C@@H](O)[C@@H]2O[C@@H]3O[C@H](C)CC(=O)[C@]3(O)O[C@@H]2[C@@H](NC)[C@H]1O , same question.
Reply: 0.166 µM (active)

Query: CCC(C=C[C@@H]1OC(=O)C=C[C@H]1C)=C[C@H](C)CC=CC(C)=C[C@@H](C)C(=O)[C@@H](C)[C@H](O)[C@@H](C)CC(C)=CC(=O)O , same question.
Reply: 0.0247 µM (active)

Query: FC(F)c1nc2ccccc2n1-c1nc(N2CCOCC2)nc(N2CCOCC2)n1 , same question.
Reply: 0.059 µM (active)

Query: Cc1cc(Nc2ncc3c(n2)N(C)C(=O)N(c2cc(NC(=O)c4cccc(C(F)(F)F)c4)ccc2C)C3)n(C)n1 , same question.
Reply: 0.209 µM (active)

Query: Cn1cc(CNCC2CCN(c3ncc(C(=O)NO)cn3)CC2)c2ccccc21 , same question.
Reply: 0.0662 µM (active)

Taken from PubChem BioAssay (NCATS).
